EXPERIMENT_DESCRIPTION: Cytotoxicity assay (CellTiter-Glo, 72 h), MESO-1
Assay type: cell-based
TEST_SETTINGS: human, MESO-1 malignant pleural mesothelioma cells, conc 0.012207 uM; raw replicate data; read-out: MESO1 viability (%)
# note: boundary value 90% maps to Criterion not met; viability at 72 h, 0.012207 uM below it maps to Criterion met

Query: Hello, is viability at 72 h, 0.012207 uM of the following compound strictly smaller than 90%? COC1CC2CCC(C)C(O)(O2)C(=O)C(=O)N2CCCCC2C(=O)OC(C(C)CC2CCC(O)C(OC)C2)CC(O)CC(=O)C(C)C=C(C)C(O)CC(=O)C(C)CC(C)C=CC=CC=C1C (centres unmarked)
Response: Criterion not met

Query: Hello, is viability at 72 h, 0.012207 uM of the following compound strictly smaller than 90%? COC1CC2CCC(C)C(O)(O2)C(=O)C(=O)N2CCCCC2C(=O)OC(C(C)CC2CCC(O)C(OC)C2)CC(=O)C(C)C=C(C)C(O)CC(=O)C(C)C=C(C)C=CC=CC=C1C (centres unmarked)
Response: Criterion not met

Query: Hello, is viability at 72 h, 0.012207 uM of the following compound strictly smaller than 90%? CO[C@H]1C[C@@H]2CC[C@@H](C)[C@@](O)(O2)C(=O)C(=O)N2CCCC[C@H]2C(=O)O[C@H]([C@H](C)C[C@@H]2CC[C@@H](O)[C@H](OC)C2)CC(=O)[C@H](C)/C=C(\C)[C@@H](O)CC[C@H](C)/C=C/C=C/C=C/1C
Response: Criterion met

----------
EXPERIMENT_DESCRIPTION: Cytotoxicity assay (CellTiter-Glo, 72 h), Jurkat
Assay type: cell-based
TEST_SETTINGS: human, Jurkat cells (T lymphoma), conc 50 uM, raw data (replicates)
READOUT_LABEL: viability at 72 h, 50 uM (%)
Respond with the bare value in %.

Query: Reported viability at 72 h, 50 uM, molecule CO[C@H]1C[C@@H]2CC[C@@H](C)[C@@](O)(O2)C(=O)C(=O)N2CCCC[C@H]2C(=O)O[C@H]([C@H](C)C[C@@H]2CC[C@@H](O)[C@H](OC)C2)CC(=O)[C@H](C)/C=C(\C)[C@@H](O)CC[C@H](C)/C=C/C=C/C=C/1C : ____
Response: 0.258

Query: Reported viability at 72 h, 50 uM, molecule CO[C@H]1C[C@@H]2CC[C@@H](C)[C@@](O)(O2)C(=O)C(=O)N2CCCC[C@H]2C(=O)O[C@H]([C@H](C)C[C@@H]2CC[C@@H](O)[C@H](OC)C2)CC(=O)[C@H](C)/C=C(\C)[C@@H](O)CC(=O)[C@H](C)C[C@H](C)/C=C/C=C(C)/C=C/1C : ____
Response: 0.7

Query: Reported viability at 72 h, 50 uM, molecule COC1CC2CCC(C)C(O)(O2)C(=O)C(=O)N2CCCCC2C(=O)OC(C(C)CC2CCC(O)C(OC)C2)CC(=O)C(C)C=C(C)C(O)CC(=O)C(C)C=C(C)C=CC=CC=C1C (stereo not drawn) : ____
Response: 0.9

----------
Please respond with reported viability at 72 h, 0.012207 uM for every item in the list.
EXPERIMENT_DESCRIPTION: Cytotoxicity assay (CellTiter-Glo, 72 h), SKOV-3
Type: cell-based, human
TEST_SETTINGS: human, SKOV-3 cells (ovarian adenocarcinoma), conc 0.012207 uM; raw replicate data; read-out: SKOV3 viability (%)
Protocol: Jurkat cells were cultured in RPMI1640 medium supplemented with 10% foetal bovine serum, penicillin (50 U/ml), streptomycin (50 μg/ml), and Glutamax. SKOV-3 cells were cultured in DMEM medium supplemented with 10% fetal bovine serum, penicillin (50 U/ml), and streptomycin (50 μg/ml). […] Cell viabilities were measured using a CellTiter-Glo luminescent cell viability assay and EnVision multilabel plate reader.
Respond with the bare value in %.

Query: Reported viability at 72 h, 0.012207 uM, compound COC1CC2CCC(C)C(O)(O2)C(=O)C(=O)N2CCCCC2C(=O)OC(C(C)CC2CCC(O)C(OC)C2)CCC(C)C=C(C)C(O)C(OC)C(=O)C(C)CC(C)C=CC=CC=C1C (stereo not drawn) [Compound 16, 32-desketorapamycin] : ____
Response: 61.7

Query: Reported viability at 72 h, 0.012207 uM, compound CO[C@@H]1C[C@H](C[C@@H](C)[C@@H]2CC(=O)[C@H](C)/C=C(\C)[C@@H](O)[C@@H](OC)C(=O)[C@H](C)C[C@H](C)/C=C/C=C/C=C(\C)[C@H](O)C[C@@H]3CC[C@@H](C)[C@@](O)(O3)C(=O)C(=O)N3CCCC[C@H]3C(=O)O2)CC[C@H]1O [Compound 17, (16R)-16-O-demethyl rapamycin] : ____
Response: 97.7

Query: Reported viability at 72 h, 0.012207 uM, compound CO[C@H]1C[C@@H]2CC[C@@H](C)[C@@](O)(O2)C(=O)C(=O)N2CCCC[C@H]2C(=O)O[C@H]([C@H](C)C[C@@H]2CC[C@@H](O)[C@H](OC)C2)CC(=O)[C@H](C)/C=C(\C)[C@@H](O)[C@@H](OC)C(=O)[C@H](C)C[C@H](C)/C=C/C=C/C=C/1C [Compound 1, rapamycin, reference compound] : ____
Response: 59.4

Query: Reported viability at 72 h, 0.012207 uM, compound COC1CC2CCC(C)C(O)(O2)C(=O)C(=O)N2CCCCC2C(=O)OC(C(C)CC2CCC(O)C(OC)C2)CC(=O)C(C)C=C(C)C(O)CC(=O)C(C)C=C(C)C=CC=CC=C1C (stereo not drawn) [Compound 14] : ____
Response: 97.1

Query: Reported viability at 72 h, 0.012207 uM, compound COC1CC2CCC(C)C(O)(O2)C(=O)C(=O)N2CCCCC2C(=O)OC(C(C)CC2CCC(O)C(OC)C2)CC(=O)C(C)C=C(C)C(O)C(OC)C(=O)C(C)CC(C)C=CCCC=C1C (stereo not drawn) [Compound 15, 19,20-dihidro-rapamycin] : ____
Response: 106

Query: Reported viability at 72 h, 0.012207 uM, compound CO[C@H]1C[C@@H]2CC[C@@H](C)[C@@](O)(O2)C(=O)C(=O)N2CCCC[C@H]2C(=O)O[C@H]([C@H](C)C[C@@H]2CC[C@@H](O)[C@H](OC)C2)CC(=O)[C@H](C)/C=C(\C)[C@@H](O)CC(=O)[C@H](C)C[C@H](C)/C=C/C=C(C)/C=C/1C [Compound 2, 27-demethoxy-19-methyl rapamycin] : ____
Response: 90.8

Query: Reported viability at 72 h, 0.012207 uM, compound CO[C@@H]1/C=C/C=C/[C@@H](C)C[C@@H](C)C(=O)C[C@H](O)/C(C)=C/[C@@H](C)C(=O)C[C@@H]([C@H](C)C[C@@H]2CC[C@@H](O)[C@H](OC)C2)OC(=O)[C@@H]2CCCCN2C(=O)C(=O)[C@]2(O)O[C@@H](CC[C@H]2C)C1 [Compound 9] : ____
Response: 99.1

Query: Reported viability at 72 h, 0.012207 uM, compound COC1CC2CCC(C)C(O)(O2)C(=O)C(=O)N2CCCCC2C(=O)OC(C(C)CC2CCC(O)C(OC)C2)CC(O)CC(=O)C(C)C=C(C)C(O)CC(=O)C(C)CC(C)C=CC=CC=C1C (stereo not drawn) [Compound 13] : ____
Response: 100

Query: Reported viability at 72 h, 0.012207 uM, compound CO[C@H]1C[C@@H]2CC[C@@H](C)[C@@](O)(O2)C(=O)C(=O)N2CCCC[C@H]2C(=O)O[C@H]([C@H](C)C[C@@H]2CC[C@@H](O)[C@H](OC)C2)CC(=O)[C@H](C)/C=C(\C)[C@@H](O)CC[C@H](C)/C=C/C=C/C=C/1C [Compound 7] : ____
Response: 96.9
